The molecules listed here are annotated with their G1/G0 %.
Test system: MDA-MB-231-Mammacarcinomzellen
experimentNotes: Flow-cytometric analysis of cell cycle distribution
Assay type: cell-based, menschlich
conditions: Konz. 0.5 µM
Description: Die cytostatische Wirkung der erfindungsgemäßen Verbindungen wurde an zwei verschiedenen menschlichen Mammacarcinomzellinien in vitro bestimmt (M. Goldbrunner et al., J.Med.Chem. 1997,40,3525). Es handelt sich dabei um die hormonunabhängige MDA-MB-231-Zellinie und die estrogensensitive MCF-7-Linie. […]
Supply the numeric figure in %, leaving out any unit text.

Below: 5 molecules and their reported G1/G0 %.
| testSmiles | testedOn | G1/G0 %, % |
| --- | --- | --- |
| CCCCCCc1ccc2[nH]c(-c3ccc(OC)cc3)c(C=C(C#N)C#N)c2c1 | MDA-MB-231-Mammacarcinomzellen | 7.4 |
| CCCCc1ccc2[nH]c(-c3ccc(C(F)(F)F)cc3)c(C=NNC(=O)c3ccncc3)c2c1 | MDA-MB-231-Mammacarcinomzellen | 16.9 |
| CCCCc1ccc2[nH]c(-c3ccc(C(F)(F)F)cc3)c(C=NNC(=O)c3cccnc3)c2c1 | MDA-MB-231-Mammacarcinomzellen | 11.4 |
| CCCCc1ccc2[nH]c(-c3ccc(C(F)(F)F)cc3)c(C=NC)c2c1 | MDA-MB-231-Mammacarcinomzellen | 6.3 |
| CCCCc1ccc2[nH]c(-c3ccc(C(F)(F)F)cc3)c(C=C(C#N)C#N)c2c1 | MDA-MB-231-Mammacarcinomzellen | 5.4 |

Quick check: G1/G0 % on MDA-MB-231-Mammacarcinomzellen, item CCCCc1ccc2[nH]c(-c3ccc(OC)cc3)c(C=NO)c2c1 ? 9.0

Ok, now CCCCc1ccc2[nH]c(-c3ccc(CC)cc3)c(C=C(C#N)C#N)c2c1 5.7

Ok, now CCCCc1ccc2[nH]c(-c3ccc(CC)cc3)c(C=NNCc3cccnc3)c2c1 9.6

Ok, now COc1ccc(-c2[nH]c3ccc(C)cc3c2C=C(C#N)C#N)cc1 41.0

Ok, now CCCCc1ccc2[nH]c(-c3ccc(C)cc3)c(C=C(C#N)C#N)c2c1 16.7

---

Tested on: MDA-MB-231-Mammacarcinomzellen
experimentNotes: Flow-cytometric analysis of cell cycle distribution
Type: cell-based, menschlich
conditions: Konz. 0.05 µM
metric: S % (%)
Supply the numeric figure in %, leaving out any unit text.

Below: 7 compounds and their reported S %.
| testSmiles | unitsText | reading |
| --- | --- | --- |
| CCCCc1ccc2[nH]c(-c3ccc(C(F)(F)F)cc3)c(C=C(C#N)C#N)c2c1 | % | 22.6 |
| CCCCc1ccc2[nH]c(-c3ccc(CC)cc3)c(C=NNCc3cccnc3)c2c1 | % | 23.7 |
| CCCCc1ccc2[nH]c(-c3ccc(C)cc3)c(C=C(C#N)C#N)c2c1 | % | 24.0 |
| CCCCc1ccc2[nH]c(-c3ccc(C(F)(F)F)cc3)c(C=NNC(=O)c3cccnc3)c2c1 | % | 23.1 |
| CCCCc1ccc2[nH]c(-c3ccc(CC)cc3)c(C=C(C#N)C#N)c2c1 | % | 24.2 |
| CCCCc1ccc2[nH]c(-c3ccc(C(F)(F)F)cc3)c(C=NC)c2c1 | % | 15.3 |
| CCCCc1ccc2[nH]c(-c3ccc(OC)cc3)c(C=NO)c2c1 | % | 13.2 |

Endpoint output: S % of CCCCc1ccc2[nH]c(-c3ccc(C(F)(F)F)cc3)c(C=NNC(=O)c3ccncc3)c2c1 . Value? 25.6

---

Test system: MDA-MB-231-Mammacarcinomzellen
experimentNotes: Flow-cytometric analysis of cell cycle distribution
Type: cell-based, menschlich
conditions: Konz. 1.0 µM
The compounds listed here are annotated with their G1/G0 %.
# do not omit the unit; it follows the number

Below: 3 compounds and their reported G1/G0 %.
| testSmiles | reading |
| --- | --- |
| CCCCc1ccc2[nH]c(-c3ccc(OC)cc3)c(C=NO)c2c1 | 9.6% |
| CCCCc1ccc2[nH]c(-c3ccc(C)cc3)c(C=C(C#N)C#N)c2c1 | 6.1% |
| COc1ccc(-c2[nH]c3ccc(C)cc3c2C=C(C#N)C#N)cc1 | 16.9% |

In the following, a different compound is considered.
Quick check: G1/G0 % on MDA-MB-231-Mammacarcinomzellen, item CCCCCCc1ccc2[nH]c(-c3ccc(OC)cc3)c(C=C(C#N)C#N)c2c1 ? 7.1%

---

The molecules listed here are annotated with their S %.
Tested on: MDA-MB-231-Mammacarcinomzellen
experimentNotes: Flow-cytometric analysis of cell cycle distribution
Format: cell-based, menschlich
conditions: Konz. 1.0 µM
Supply the numeric figure in %, leaving out any unit text.

Below: 3 molecules and their reported S %.
| molecule | testedOn | unitsText | S % |
| --- | --- | --- | --- |
| CCCCc1ccc2[nH]c(-c3ccc(OC)cc3)c(C=NO)c2c1 [Verbindung 20] | MDA-MB-231-Mammacarcinomzellen | % | 21.2 |
| COc1ccc(-c2[nH]c3ccc(C)cc3c2C=C(C#N)C#N)cc1 [Verbindung 1] | MDA-MB-231-Mammacarcinomzellen | % | 21.3 |
| CCCCCCc1ccc2[nH]c(-c3ccc(OC)cc3)c(C=C(C#N)C#N)c2c1 [Verbindung 9] | MDA-MB-231-Mammacarcinomzellen | % | 19.7 |

In the following, a different molecule is considered.
Endpoint output: S % of CCCCc1ccc2[nH]c(-c3ccc(C)cc3)c(C=C(C#N)C#N)c2c1 [Verbindung 14] . Value? 10.3

---

System: MDA-MB-231-Mammacarcinomzellen
experimentNotes: Flow-cytometric analysis of cell cycle distribution
Type: cell-based, menschlich
conditions: Konz. 0.01 µM
Quick rule for you: S % under 20% gets True, anything else gets False.

Example entries begin here.
| compound | classification |
| --- | --- |
| CCCCc1ccc2[nH]c(-c3ccc(C(F)(F)F)cc3)c(C=NNC(=O)c3cccnc3)c2c1 [Verbindung 25] | False |
| CCCCc1ccc2[nH]c(-c3ccc(C(F)(F)F)cc3)c(C=NC)c2c1 [Verbindung 19] | True |

Kindly consider the entry below.
Please determine if CCCCc1ccc2[nH]c(-c3ccc(C(F)(F)F)cc3)c(C=C(C#N)C#N)c2c1 [Verbindung 13] is below 20% in terms of S %. False

---

Test system: MDA-MB-231-Brustkrebszellen
experimentNotes: Growth inhibition of MDA-MB-231 breast cancer cells in vitro (cytostatic effect)
Type: cell-based, menschlich
conditions: Homo sapiens; MDA-MB-231 cells; read-out: IC50 Hemmwirkung auf das Wachstum
The molecules listed here are annotated with their pIC50.
To interpret pIC50, take it as minus log10 of a concentration measured in moles per litre.

Below: 5 molecules and their reported pIC50.
| molecule | reading |
| --- | --- |
| CCCCc1ccc2[nH]c(-c3ccc(OC)cc3)c(C=NO)c2c1 [Verbindung 20] | 7.40 |
| CCCCc1ccc2[nH]c(-c3ccc(OC)cc3)c(C=NNC(=O)c3ccccc3)c2c1 [Verbindung 22] | 7.49 |
| COc1ccc(-c2[nH]c3cc(OC)ccc3c2C=NNc2ccccc2)cc1 [Verbindung 21] | 6.00 |
| CCCCc1ccc2[nH]c(-c3ccc(OC)cc3)c(C=NN3C(=O)c4ccccc4C3=O)c2c1 [Verbindung 29] | 7.52 |
| CCCCCc1ccc2[nH]c(-c3ccc(OC)cc3)c(C=C(C#N)C#N)c2c1 [Verbindung 8] | 7.38 |

Endpoint output: pIC50 of CCCCCCc1ccc2[nH]c(-c3ccc(OC)cc3)c(C=C(C#N)C#N)c2c1 [Verbindung 9] . Value? 7.34

Ok, now COc1ccc(-c2[nH]c3cc(C(C)C)ccc3c2C=C(C#N)C#N)cc1 [Verbindung 6] 6.68

Ok, now COc1cccc(-c2[nH]c3ccc(OC)cc3c2C=C(C#N)C#N)c1 [Verbindung 12] 6.01

Ok, now CCCCc1ccc2[nH]c(-c3ccc(C)cc3)c(C=C(C#N)C#N)c2c1 [Verbindung 14] 7.19

Ok, now COc1ccc(-c2[nH]c3ccccc3c2C=C(C#N)C#N)cc1 [Verbindung 11] 6.14

Ok, now CCCCc1ccc2[nH]c(-c3ccc(CC)cc3)c(C=NNCc3cccnc3)c2c1 [Verbindung 26] 7.28

Ok, now COc1ccc(-c2[nH]c3ccc(C)cc3c2C=C(C#N)C#N)cc1 [Verbindung 1] 6.55

Ok, now CCCc1ccc2[nH]c(-c3ccc(OC)cc3)c(C=C(C#N)C#N)c2c1 [Verbindung 5] 7.08

Ok, now COc1ccc2c(C=C(C#N)C#N)c(-c3ccc(C)cc3)[nH]c2c1 [Verbindung 3] 6.74

---

The compounds listed here are annotated with their IC50.
System: MDA-MB-231-Brustkrebszellen
experimentNotes: Growth inhibition of MDA-MB-231 breast cancer cells in vitro (cytostatic effect)
Assay type: cell-based, menschlich
conditions: Homo sapiens; MDA-MB-231 cells; read-out: IC50 Hemmwirkung auf das Wachstum
Supply the numeric figure in nM, leaving out any unit text.

Below: 2 compounds and their reported IC50.
| testSmiles | IC50 / nM |
| --- | --- |
| CCCCc1ccc2[nH]c(-c3ccc(OC)cc3)c(C=C(C#N)C#N)c2c1 | 13 |
| COc1ccc(-c2[nH]c3cc(OC)ccc3c2C=C(C#N)C#N)cc1 | 260 |

In the following, a different compound is considered.
Endpoint output: IC50 of CCCCc1ccc2[nH]c(-c3ccc(CC)cc3)c(C=C(C#N)C#N)c2c1 . Value? 79
